Substrate: O=C(O)c1cc(C(=O)O)oc(=O)c1
method.summary: purified protein
Format: biochemical, Sphingobium sp. SYK-6
stated.conditions: 50 mM BICINE pH 8.25, 30 °C
Task for the reader: assign each of the following proteins its reported kcat.
A complete answer gives the number followed by the unit.

For the protein LigI (Sphingobium sp. SYK-6; H31N) (protein) TNDERILSWNETPSKPRYTPPPGAIDAHCNVFGPMAQFPFSPKAKYLPRDAGPDMLFALRDHLGFARNVIVQASCHGTDNAATLDAIARAQGKARGIAVVDPAIDEAELAALHEGGMRGIRFNFLKRLVDDAPKDKFLEVAGRLPAGWHVVIYFEADILEELRPFMDAIPVPIVIDHMGRPDVRQGPDGADMKAFRRLLDSREDIWFKATCPDRLDPAGPPWDDFARSVAPLVADYADRVIWGTDWPHPNMQDAIPDDGLVVDMIPRIAPTPELQHKMLVTNPMRLYWSEEM , what kcat is on record?
3.6 s⁻¹

// same read-out, input: LigI (Sphingobium sp. SYK-6; R128M) (protein) TNDERILSWNETPSKPRYTPPPGAIDAHCHVFGPMAQFPFSPKAKYLPRDAGPDMLFALRDHLGFARNVIVQASCHGTDNAATLDAIARAQGKARGIAVVDPAIDEAELAALHEGGMRGIRFNFLKMLVDDAPKDKFLEVAGRLPAGWHVVIYFEADILEELRPFMDAIPVPIVIDHMGRPDVRQGPDGADMKAFRRLLDSREDIWFKATCPDRLDPAGPPWDDFARSVAPLVADYADRVIWGTDWPHPNMQDAIPDDGLVVDMIPRIAPTPELQHKMLVTNPMRLYWSEEM
5 s⁻¹

Continue with LigI (Sphingobium sp. SYK-6; H178A) (protein) TNDERILSWNETPSKPRYTPPPGAIDAHCHVFGPMAQFPFSPKAKYLPRDAGPDMLFALRDHLGFARNVIVQASCHGTDNAATLDAIARAQGKARGIAVVDPAIDEAELAALHEGGMRGIRFNFLKRLVDDAPKDKFLEVAGRLPAGWHVVIYFEADILEELRPFMDAIPVPIVIDAMGRPDVRQGPDGADMKAFRRLLDSREDIWFKATCPDRLDPAGPPWDDFARSVAPLVADYADRVIWGTDWPHPNMQDAIPDDGLVVDMIPRIAPTPELQHKMLVTNPMRLYWSEEM
8 s⁻¹

Next: LigI (Sphingobium sp. SYK-6; H178C) (protein) TNDERILSWNETPSKPRYTPPPGAIDAHCHVFGPMAQFPFSPKAKYLPRDAGPDMLFALRDHLGFARNVIVQASCHGTDNAATLDAIARAQGKARGIAVVDPAIDEAELAALHEGGMRGIRFNFLKRLVDDAPKDKFLEVAGRLPAGWHVVIYFEADILEELRPFMDAIPVPIVIDCMGRPDVRQGPDGADMKAFRRLLDSREDIWFKATCPDRLDPAGPPWDDFARSVAPLVADYADRVIWGTDWPHPNMQDAIPDDGLVVDMIPRIAPTPELQHKMLVTNPMRLYWSEEM
32 s⁻¹

Same thing, different protein: LigI (Sphingobium sp. SYK-6; D246N) (protein) TNDERILSWNETPSKPRYTPPPGAIDAHCHVFGPMAQFPFSPKAKYLPRDAGPDMLFALRDHLGFARNVIVQASCHGTDNAATLDAIARAQGKARGIAVVDPAIDEAELAALHEGGMRGIRFNFLKRLVDDAPKDKFLEVAGRLPAGWHVVIYFEADILEELRPFMDAIPVPIVIDHMGRPDVRQGPDGADMKAFRRLLDSREDIWFKATCPDRLDPAGPPWDDFARSVAPLVADYADRVIWGTNWPHPNMQDAIPDDGLVVDMIPRIAPTPELQHKMLVTNPMRLYWSEEM
0.023 s⁻¹

# repeat for LigI (Sphingobium sp. SYK-6; R122M) (protein) TNDERILSWNETPSKPRYTPPPGAIDAHCHVFGPMAQFPFSPKAKYLPRDAGPDMLFALRDHLGFARNVIVQASCHGTDNAATLDAIARAQGKARGIAVVDPAIDEAELAALHEGGMRGIMFNFLKRLVDDAPKDKFLEVAGRLPAGWHVVIYFEADILEELRPFMDAIPVPIVIDHMGRPDVRQGPDGADMKAFRRLLDSREDIWFKATCPDRLDPAGPPWDDFARSVAPLVADYADRVIWGTDWPHPNMQDAIPDDGLVVDMIPRIAPTPELQHKMLVTNPMRLYWSEEM
0.02 s⁻¹

Record: LigI (Sphingobium sp. SYK-6; H29N) (protein) TNDERILSWNETPSKPRYTPPPGAIDANCHVFGPMAQFPFSPKAKYLPRDAGPDMLFALRDHLGFARNVIVQASCHGTDNAATLDAIARAQGKARGIAVVDPAIDEAELAALHEGGMRGIRFNFLKRLVDDAPKDKFLEVAGRLPAGWHVVIYFEADILEELRPFMDAIPVPIVIDHMGRPDVRQGPDGADMKAFRRLLDSREDIWFKATCPDRLDPAGPPWDDFARSVAPLVADYADRVIWGTDWPHPNMQDAIPDDGLVVDMIPRIAPTPELQHKMLVTNPMRLYWSEEM
0.4 s⁻¹
